molecular target: human recombinant MC4R (CHO-K1/Gα15 stable cell line, GenScript) (human, UniProt P32245 1-332); assay: cell-based or functional assay
Sequence (P32245 whole entry): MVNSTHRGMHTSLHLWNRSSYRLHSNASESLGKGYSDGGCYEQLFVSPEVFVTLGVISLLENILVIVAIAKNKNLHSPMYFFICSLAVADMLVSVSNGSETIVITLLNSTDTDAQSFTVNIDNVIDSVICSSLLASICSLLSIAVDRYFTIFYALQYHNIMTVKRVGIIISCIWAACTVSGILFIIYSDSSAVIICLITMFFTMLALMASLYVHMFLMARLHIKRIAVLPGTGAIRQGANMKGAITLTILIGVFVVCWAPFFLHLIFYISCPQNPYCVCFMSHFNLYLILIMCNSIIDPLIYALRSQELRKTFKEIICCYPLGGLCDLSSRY
Positions of bridges follow the written chain, without caps; N, C: chain ends. Non-standard residues stand in square brackets, D forms with d. *: point of attachment. HyPA = 3,5-dihydroxyphenylacetic acid (N-terminal cap), O=C(Cc1cc(O)cc(O)c1)*; Lys(N3) = [N-]=[N+]=NCCCC[C@H](N)C(=O)O; dPra = C#CC[C@@H](N)C(=O)O; Nle = CCCC[C@H](N)C(=O)O; Pra = C#CC[C@H](N)C(=O)O
endpointName: MC4R IC50 (nM)
Write the number in nM without appending the unit.

# binder, MC4R IC50 (nM)
records = [
    ("HyPA-[Nle][Lys(N3)]H[dF]RW[Pra]K-NH2 (triazole 2-7; not fully specified; printed as HyPA-Nle-[Lys(N3)-His-DPhe-Arg-Trp-Pra]-Lys-NH2) [KR-062]", 44.4),
]

Prompt: Return reported MC4R IC50; argument: Ac-[Nle][Lys(N3)]H[dF]RW[dPra]K-NH2 (triazole 2-7; not fully specified; printed as Ac-Nle-[Lys(N3)-His-DPhe-Arg-Trp-DPra]-Lys-NH2) [KR-070]
Response: 84.1
